test system: 323965-272-R-J2-PDC complex spheroid growth, % test/control; test: Anticancer human tumor 323965-272-R-J2-PDC patient-derived pancreatic carcinoma cell line growth inhibition [Asc]; conditions: second compound 1 µM; first compound 1 µM; active compounds read low;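 further: compound exposure lasted 7 days starting three days after spheroid seeding; 100% = DMSO vehicle control wells with viability set relative to vehicle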
QUANTITY_NAME: viability, T/C

COMPOUND | QUANTITY_NAME | RESULT
C=CC(=O)N1CCN(c2nc(=O)n(-c3c(C)ccnc3C(C)C)c3nc(-c4c(O)cccc4F)c(F)cc23)C(C)C1 (stereo not drawn) + Cc1c(S(C)(=O)=O)c(-c2cc(F)cc(N3CCN(c4ccc(NS(=O)(=O)c5ccc(NC(CCN6CCC(C(=O)OCCCP(=O)(O)O)CC6)CSc6ccccc6)c(S(=O)(=O)C(F)(F)F)c5)cc4)CC3)c2)c(-c2ccc(Cl)cc2)n1C(C)C | viability, T/C | 54.5%
CNC(C)C(=O)NC1CN(S(=O)(=O)c2cccc(S(=O)(=O)N3CCC4CCC(C(=O)NC(c5ccccc5)c5ccccc5)N4C(=O)C(NC(=O)C(C)NC)C3)c2)CCC2CCC(C(=O)NC(c3ccccc3)c3ccccc3)N2C1=O (stereo not drawn) + Cc1c(S(C)(=O)=O)c(-c2cc(F)cc(N3CCN(c4ccc(NS(=O)(=O)c5ccc(NC(CCN6CCC(C(=O)OCCCP(=O)(O)O)CC6)CSc6ccccc6)c(S(=O)(=O)C(F)(F)F)c5)cc4)CC3)c2)c(-c2ccc(Cl)cc2)n1C(C)C | viability, T/C | 38.8%
C#Cc1c(F)ccc2cc(O)cc(-c3ncc4c(N5CC6CCC(C5)N6)nc(OCC56CCCN5CC(F)C6)nc4c3F)c12 (stereo not drawn) + Cc1c(S(C)(=O)=O)c(-c2cc(F)cc(N3CCN(c4ccc(NS(=O)(=O)c5ccc(NC(CCN6CCC(C(=O)OCCCP(=O)(O)O)CC6)CSc6ccccc6)c(S(=O)(=O)C(F)(F)F)c5)cc4)CC3)c2)c(-c2ccc(Cl)cc2)n1C(C)C | viability, T/C | 80.8%
